test system: BT-549 breast; test: NCI tumour cell line growth inhibition, 48 h
Assay endpoint: TGI (µM)
All answers are understood in µM, so give the number only.

Use these answered entries as a reference point.
INSERT INTO assay_data (compound, quantitative_readout) VALUES
  ('CC1CN1CC(O)C(O)CN1CC1C (centres undefined)', 87.1),
  ('COc1ccc2c(c1)C=C([N+](=O)[O-])C(C1OC(C)(C)OC1C1COC(C)(C)O1)O2 (centres undefined)', 12.6),
  ('COc1cccc(Nc2nc(C)c([N+](=O)[O-])c(Nc3cccc(OC)c3)n2)c1', 8.14);

Moving on to the next compound.
Request: Hi! What's the reported TGI for `Cc1cc(C)c(C(=O)CC(=O)c2cccnc2)c(C)c1` on BT-549 breast?
Result: 33.9

----------
test system: DMS 273 small cell lung; assay: NCI tumour cell line growth inhibition, 48 h
Assay endpoint: TGI

Use these answered entries as a reference point.
INSERT INTO results (molecule, result) VALUES
  ('Cc1ccc(S(=O)(=O)n2c(-c3ccccc3)c(-c3ccccc3)c3ccccc32)cc1', '> 100 µM'),
  ('Nc1ccc(/C=C/c2ccnc3ccccc23)cc1', '48.9 µM'),
  ('C[N+](C)(C)CC1CCCC(C[N+](C)(C)C)C1=O (configuration not stated)', '10.1 µM'),
  ('CCOC1=NC(=O)CC(c2ccccc2)S1 (configuration not stated)', '> 100 µM');

Request: Hi! What's the reported TGI for COc1ccc(C2C(C(=O)O)=C(CO)Oc3cc4c(cc32)OCO4)cc1 (configuration not stated) on DMS 273 small cell lung?
Result: > 100 µM

Request: Do the same for `CC(C)N(C(=O)C12CC3CC(CC(C3)C1)C2)C(C)C` please
Result: > 50 µM

Request: Do the same for O=C(O)CP(=S)(S)c1ccccc1 (configuration not stated) please
Result: > 100 µM

Request: Do the same for `COC(=O)c1cccc2cccc(C(=O)Nc3ccc(C)cc3C)c12` please
Result: > 100 µM

Request: Do the same for `Cc1ccc(Nc2nc3c(s2)C(=O)c2ccccc2C3=O)c(C)c1` please
Result: 43.7 µM

Request: Do the same for `CC(C)(C)OC(=O)Cc1ccc2c(ccn2Cc2ccccc2)c1` please
Result: > 100 µM

Request: Do the same for `CC1(n2nc(-c3ccccc3)n(-c3ccccc3)c2=O)CSC1` please
Result: > 100 µM

Request: Do the same for COc1ccc2c(c1)CCC1C3(CCCC21C)OCCO3 (configuration not stated) please
Result: 40.3 µM

----------
# TGI per record follows
tested on: PC-3 prostate; test: NCI tumour cell line growth inhibition, 48 h

INSERT INTO assay_data (compound_structure_string, result) VALUES
  ('CC(=O)O[C@H]1C(=O)[C@@]2(C)[C@H]([C@H](OC(=O)c3ccccc3)[C@]3(O)C[C@H](OC(=O)[C@H](O)[C@@H](NC(=O)c4ccc(N)cc4)c4ccccc4)C(C)=C1C3(C)C)[C@]1(OC(C)=O)CO[C@@H]1C[C@@H]2O', '> 50 µM'),
  ('C1C2CC3CC1CC(c1nn4c(C56CC7CC(CC(C7)C5)C6)nnc4s1)(C2)C3', '> 100 µM');

Moving on to the next compound.
Request: What TGI value was documented for this compound, `COc1cc(NC(=O)c2cc(O)c(CC=C(C)C)c(O)c2)cc2c1O[C@]1(C)CC[C@@H](O)C(C)(C)[C@H]1C2` ?
Result: 35.1 µM
